- target.of.assay: human CB2 receptors (Homo sapiens, UniProt P34972)
- Construct: expressed in transfected cells; host or cells: CHO cells
- Sequence (P34972 whole entry): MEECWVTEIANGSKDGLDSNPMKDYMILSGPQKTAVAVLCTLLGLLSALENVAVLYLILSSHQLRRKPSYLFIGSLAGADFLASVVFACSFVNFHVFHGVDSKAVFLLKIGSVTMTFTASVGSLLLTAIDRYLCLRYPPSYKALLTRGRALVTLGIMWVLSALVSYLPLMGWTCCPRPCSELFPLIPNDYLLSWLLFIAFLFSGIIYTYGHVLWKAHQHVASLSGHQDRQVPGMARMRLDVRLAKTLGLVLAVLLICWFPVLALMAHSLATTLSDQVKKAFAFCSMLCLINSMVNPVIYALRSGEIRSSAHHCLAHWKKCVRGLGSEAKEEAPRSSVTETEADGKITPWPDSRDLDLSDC
- test.details: functional cAMP assay, human CB2
- Type: cell-based
- condition.label: CHO cells expressing human CB2, cAMP; read-out: human CB2 EC50
Exercise: for every item that follows, state its recorded EC50.
Answer with a number only, understood to be in nM.

-- ask Let me know recorded EC50 for COc1ccc(Cn2nnc3c(N4CCOCC4)nc(C(C)(C)C)nc32)cc1 [Example 57] , thanks.
-- reply 12.3

-- ask Let me know recorded EC50 for CC(C)(C)c1nc(OC2COC2)c2nnn(Cc3ccccc3Cl)c2n1 [Example 206] , thanks.
-- reply 11.3

-- ask Let me know recorded EC50 for CC(C)(C)c1nc(N2CCOCC2CO)c2nnn(Cc3ccccc3Cl)c2n1 (stereo not drawn) [Example 48] , thanks.
-- reply 8.3

###

- target.of.assay: human CB2 receptors (Homo sapiens)
- Construct: expressed in transfected cells; host or cells: CHO cells
- test.details: functional cAMP assay, human CB2
- Assay type: cell-based
- condition.label: CHO cells expressing human CB2, cAMP; read-out: human CB2 EC50
metric.name: pEC50
// scale note: pEC50 = -log10(conc_M); give the bare number

-- ask Let me know recorded pEC50 for CC(C)(C)c1nc(N2CCSC2)c2nnn(Cc3ccccc3Cl)c2n1 [Example 19] , thanks.
-- reply 8.77

-- ask Let me know recorded pEC50 for CC(C)(C)c1nc(N2CC[C@](C)(O)C2)c2nnn(Cc3ccccc3S(C)(=O)=O)c2n1 [Example 223-a] , thanks.
-- reply 9.40

-- ask Let me know recorded pEC50 for CC1(O)CCN(c2nc(C(C)(C)C)nc3c2nnn3Cc2ccccc2Cl)C1 (stereo not drawn) [Example 54] , thanks.
-- reply 8.55

###

- target.of.assay: human CB1 receptors (Homo sapiens, UniProt P21554)
- Construct: expressed in transfected cells; host or cells: CHO cells
- Sequence (P21554 whole entry): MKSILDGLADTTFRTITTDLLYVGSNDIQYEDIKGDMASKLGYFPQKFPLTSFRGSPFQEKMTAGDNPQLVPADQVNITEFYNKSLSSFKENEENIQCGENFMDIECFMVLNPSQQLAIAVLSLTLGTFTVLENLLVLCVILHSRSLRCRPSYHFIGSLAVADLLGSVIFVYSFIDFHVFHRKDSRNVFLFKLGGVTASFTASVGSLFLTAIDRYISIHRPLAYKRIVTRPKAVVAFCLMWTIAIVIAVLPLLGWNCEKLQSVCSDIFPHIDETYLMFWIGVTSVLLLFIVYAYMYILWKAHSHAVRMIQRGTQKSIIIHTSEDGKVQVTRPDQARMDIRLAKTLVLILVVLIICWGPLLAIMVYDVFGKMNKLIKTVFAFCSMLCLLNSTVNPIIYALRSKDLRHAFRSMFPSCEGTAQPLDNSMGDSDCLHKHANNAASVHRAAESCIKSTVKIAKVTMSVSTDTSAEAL
- test.details: functional cAMP assay, human CB1
- Assay type: cell-based
- condition.label: CHO cells expressing human CB1, cAMP; read-out: human CB1 EC50
pEC50: −log10 of the molar value.
Exercise: for every item that follows, state its recorded pEC50.

-- ask Recall the reported pEC50 of CC(C)(C)c1nc(N2CCC(O)CC2)c2nnn(Cc3ccccc3Cl)c2n1 on human CB1 receptors (Homo sapiens, UniProt P21554) and write it down.
-- reply < 5.00

-- ask Recall the reported pEC50 of CC(C)(C)c1nc(N2CCC(F)(F)C2)c2nnn(Cc3cccc(Cl)c3)c2n1 on human CB1 receptors (Homo sapiens, UniProt P21554) and write it down.
-- reply 6.66

-- ask Recall the reported pEC50 of CC(C)(C)c1nc(N2CCC(F)(F)C2)c2nnn(Cc3ccc(F)cc3Cl)c2n1 on human CB1 receptors (Homo sapiens, UniProt P21554) and write it down.
-- reply < 5.00

-- ask Recall the reported pEC50 of CC1(C)CN(c2nc(C(C)(C)C)nc3c2nnn3Cc2ccccc2Cl)CCO1 on human CB1 receptors (Homo sapiens, UniProt P21554) and write it down.
-- reply < 5.00

-- ask Recall the reported pEC50 of COC1CN(c2nc(C(C)(C)C)nc3c2nnn3Cc2ccccc2Cl)C1 on human CB1 receptors (Homo sapiens, UniProt P21554) and write it down.
-- reply 6.01

-- ask Recall the reported pEC50 of CC(C)(C)c1nc(N2CCCO2)c2nnn(Cc3ccccc3Cl)c2n1 on human CB1 receptors (Homo sapiens, UniProt P21554) and write it down.
-- reply < 5.00

-- ask Recall the reported pEC50 of COC[C@@H]1CCCN1c1nc(C(C)(C)C)nc2c1nnn2Cc1ccccc1Cl on human CB1 receptors (Homo sapiens, UniProt P21554) and write it down.
-- reply < 5.00

-- ask Recall the reported pEC50 of CC(C)(C)c1nc(N2C[C@@H](F)C[C@H]2C#N)c2nnn(Cc3ccccc3Cl)c2n1 on human CB1 receptors (Homo sapiens, UniProt P21554) and write it down.
-- reply 5.64

-- ask Recall the reported pEC50 of CC(C)(C)c1nc(N2CC[C@@](C)(O)C2)c2nnn(Cc3ccccc3C(F)(F)F)c2n1 on human CB1 receptors (Homo sapiens, UniProt P21554) and write it down.
-- reply < 5.00

-- ask Recall the reported pEC50 of CC(C)(C)c1nc(N2CCC(F)(F)C2)c2nnn(CCc3ccc(Cl)cc3)c2n1 on human CB1 receptors (Homo sapiens, UniProt P21554) and write it down.
-- reply < 5.00

-- ask Recall the reported pEC50 of Cn1nnnc1Cn1nnc2c(N3CCC(F)(F)C3)nc(C(C)(C)C)nc21 on human CB1 receptors (Homo sapiens, UniProt P21554) and write it down.
-- reply < 5.00

-- ask Recall the reported pEC50 of Cc1nc(Cn2nnc3c(N4CC[C@H](O)C4)nc(C(C)(C)C)nc32)n(C)n1 on human CB1 receptors (Homo sapiens, UniProt P21554) and write it down.
-- reply < 5.00

-- ask Recall the reported pEC50 of CC1(O)CCN(c2nc(C(C)(C)C)nc3c2nnn3Cc2ccccc2Cl)C1 (stereo not drawn) on human CB1 receptors (Homo sapiens, UniProt P21554) and write it down.
-- reply < 5.00

-- ask Recall the reported pEC50 of CCOc1nc(C(C)(C)C)nc2c1nnn2Cc1ccccc1Cl on human CB1 receptors (Homo sapiens, UniProt P21554) and write it down.
-- reply < 5.00

-- ask Recall the reported pEC50 of CCn1nnc2c(N3CCC(F)(F)C3)nc(C(C)(C)C)nc21 on human CB1 receptors (Homo sapiens, UniProt P21554) and write it down.
-- reply < 5.00

-- ask Recall the reported pEC50 of Cn1nncc1Cn1nnc2c(N3CC[C@H](O)C3)nc(C(C)(C)C)nc21 on human CB1 receptors (Homo sapiens, UniProt P21554) and write it down.
-- reply < 5.00

-- ask Recall the reported pEC50 of CC(C)(C)c1nc(N2CCOC(CO)C2)c2nnn(Cc3ccccc3Cl)c2n1 (stereo not drawn) on human CB1 receptors (Homo sapiens, UniProt P21554) and write it down.
-- reply < 5.00

-- ask Recall the reported pEC50 of CC1(C)CCN(c2nc(C(C)(C)C)nc3c2nnn3Cc2ccccc2Cl)C1 on human CB1 receptors (Homo sapiens, UniProt P21554) and write it down.
-- reply < 5.00

-- ask Recall the reported pEC50 of CC(C)(C)c1nc(N2CC(O)C2)c2nnn(Cc3ccccc3Cl)c2n1 on human CB1 receptors (Homo sapiens, UniProt P21554) and write it down.
-- reply < 5.00

-- ask Recall the reported pEC50 of CC(C)(C)c1nc(N2CCC(F)(F)C2)c2nnn(Cc3c(Cl)cccc3Cl)c2n1 on human CB1 receptors (Homo sapiens, UniProt P21554) and write it down.
-- reply 7.29

-- ask Recall the reported pEC50 of CC(C)(C)c1nc(N2CCC(F)(F)C2)c2nnn(Cc3cccnc3Cl)c2n1 on human CB1 receptors (Homo sapiens, UniProt P21554) and write it down.
-- reply 7.21
